Tested on: 786-0 renal
Test: NCI-60 one-dose screen, 48 h
Conditions: 10 µM unless noted
This is part of a sample that, as a whole, favours compounds with a hit. Of some 83,000 tested, about 20% had one in any assay. Activity calls are given as the source filed them. How the source made its calls: active means growth percent below 10; inactive means the rest.
Just give me one of these, please: active, inactive

Study these solved cases before continuing.
- compound: "Cc1ccc(C(=O)NCCNc2nccc(-c3c(-c4cccc(F)c4)nc4sccn34)n2)cc1"
  group: "inactive"
- compound: "CN1CCN(c2ccc(-c3cnc4c(-c5csc6ccccc56)cnn4c3)cc2)CC1"
  group: "active"
- compound: "O=C1/C(=C/c2ccccc2[N+](=O)[O-])Oc2ccc(O)c(O)c21"
  group: "inactive"
- compound: "COc1ccc2[nH]c(-c3ccccc3)c(/C=C(\\C#N)S(=O)(=O)c3ccccc3)c2c1"
  group: "inactive"
- compound: "CCN(CC)CCNC(=O)c1cn2ncnc(Oc3ccc(NC(=O)Nc4ccc(Cl)c(C(F)(F)F)c4)cc3)c2c1C"
  group: "active"

What classification did Cc1cc(O)c(C2=NN(c3ccc(S(N)(=O)=O)cc3)C(/C=C/c3ccccc3)C2)cc1Cl (stereo not given) end up with in this test?
active

What classification did `O=C1COCCN1c1ccc(NCc2cn(C(=O)c3ccc(Cl)cc3)c3ccccc23)cc1` end up with in this test?
inactive

What classification did `C#Cc1cccc(NC(=O)c2ccc(NC(=O)C=C)cc2)c1` end up with in this test?
inactive

What classification did `COc1ccc2sc3c(NCCCN(C)C)nc4ccccc4c3c(=O)c2c1` end up with in this test?
inactive

What classification did `COc1nc2ccc(C)cc2cc1-c1nc2c(cnn2-c2ccccc2)c(=O)[nH]1` end up with in this test?
inactive
